// provenance: ChEMBL document CHEMBL1137710

TGI listing for selected molecules.
tested on: MCF7; test: Growth inhibition of human MCF7 cells after 48 hrs by sulforhodamine B assay; format: functional; conditions: MCF7, 48 h, read-out: pTGI (converted)
Measure Name: TGI (µM)

1. Nc1cc(N)c2nc(-c3ccccc3)c(Sc3ccc(Cl)c(Cl)c3)nc2c1    38
2. Nc1cc(N)c2nc(-c3ccccc3)c(NCc3ccc(Cl)c(Cl)c3)nc2c1    53.7
3. Nc1cc(N)c2nc(-c3ccccc3)c(Sc3ccc(F)cc3)nc2c1    63.1
4. COc1ccc(CNc2nc3cc(N)cc(N)c3nc2-c2ccccc2)cc1    26.3

====

assay: Growth inhibition of human Hs 578T cells after 48 hrs by sulforhodamine B assay; format: functional; conditions: read-out: pTGI (converted)
Measure Name: TGI (µM)

1. COc1cc(OC)cc(Oc2nc3cc(N)cc(N)c3nc2-c2ccccc2)c1    4.17
2. COc1cc(CNc2nc3cc(N)cc(N)c3nc2-c2ccccc2)cc(OC)c1OC    33.1
3. Nc1cc(N)c2nc(-c3ccccc3)c(Sc3ccc(F)cc3)nc2c1    61.7
4. Nc1cc(N)c2nc(-c3ccccc3)c(Oc3ccc(Cl)c(Cl)c3)nc2c1    33.9
5. Nc1cc(N)c2nc(-c3ccccc3)c(NCc3ccc(Cl)c(Cl)c3)nc2c1    46.8

====

CC50 listing for selected compounds.
system: A498; assay: Growth inhibition of human A498 cells after 48 hrs by sulforhodamine B assay; format: functional; settings: A498, 48 h, read-out: pLC50 (the source's name) (converted)
Measure Name: CC50 (µM)

1. Nc1cc(N)c2nc(-c3ccccc3)c(Sc3ccc(Cl)c(Cl)c3)nc2c1    57.5
2. Nc1cc(N)c2nc(-c3ccccc3)c(NCc3ccc(Cl)c(Cl)c3)nc2c1    60.3
3. COc1cc(CNc2nc3cc(N)cc(N)c3nc2-c2ccccc2)cc(OC)c1OC    33.9

====

TGI listing for selected compounds.
system: NCI-H23; experiment: Growth inhibition of human NCI-H23 cells after 48 hrs by sulforhodamine B assay; assay type: functional; settings: NCI-H23, 48 h, read-out: pTGI (converted)
Measure Name: TGI (µM)

1. Nc1cc(N)c2nc(-c3ccccc3)c(Sc3ccc(F)cc3)nc2c1    39.8
2. COc1cc(CNc2nc3cc(N)cc(N)c3nc2-c2ccccc2)cc(OC)c1OC    17

====

GI50 listing for selected molecules.
tested on: HCT-116; assay: Growth inhibition of human HCT116 cells after 48 hrs by sulforhodamine B assay; format: functional; details: HCT-116, 48 h
Measure Name: GI50 (µM)

1. COc1cc(CNc2nc3cc(N)cc(N)c3nc2-c2ccccc2)cc(OC)c1OC    9.77
2. COc1ccc(Oc2nc3cc(N)cc(N)c3nc2-c2ccccc2)cc1    28.8
3. Nc1cc(N)c2nc(-c3ccccc3)c(Sc3ccc(Cl)c(Cl)c3)nc2c1    9.33
4. Nc1cc(N)c2nc(-c3ccccc3)c(Sc3ccc(F)cc3)nc2c1    14.8
5. COc1cc(OC)cc(Oc2nc3cc(N)cc(N)c3nc2-c2ccccc2)c1    2.34
6. Nc1cc(N)c2nc(-c3ccccc3)c(Oc3ccc(F)cc3)nc2c1    14.8
7. COc1ccc(CNc2nc3cc(N)cc(N)c3nc2-c2ccccc2)cc1    14.5
8. COc1cc(CNc2nc3cc(N)cc(N)c3nc2-c2ccccc2)cc(OC)c1    3.09
9. Nc1cc(N)c2nc(-c3ccccc3)c(NCc3ccc(Cl)c(Cl)c3)nc2c1    11.5
10. Nc1cc(N)c2nc(-c3ccccc3)c(Oc3ccc(Cl)c(Cl)c3)nc2c1    15.8
11. COc1ccc(Sc2nc3cc(N)cc(N)c3nc2-c2ccccc2)cc1    14.8
12. Nc1cc(N)c2nc(-c3ccccc3)c(NCc3ccc(F)cc3)nc2c1    12.9

====

system: 786-0; assay: Growth inhibition of human 786-0 cells after 48 hrs by sulforhodamine B assay; type: functional; conditions: 786-0, 48 h, read-out: pTGI (converted)
Measure Name: TGI (µM)

1) Nc1cc(N)c2nc(-c3ccccc3)c(Oc3ccc(F)cc3)nc2c1    34.7
2) COc1ccc(CNc2nc3cc(N)cc(N)c3nc2-c2ccccc2)cc1    41.7
3) Nc1cc(N)c2nc(-c3ccccc3)c(Sc3ccc(Cl)c(Cl)c3)nc2c1    61.7

====

test system: SK-MEL-2; assay: Growth inhibition of human SK-MEL-2 cells after 48 hrs by sulforhodamine B assay; format: functional; details: SK-MEL-2, 48 h, read-out: pTGI (converted)
Measure Name: TGI (µM)

1. COc1cc(CNc2nc3cc(N)cc(N)c3nc2-c2ccccc2)cc(OC)c1    40.7
2. COc1ccc(CNc2nc3cc(N)cc(N)c3nc2-c2ccccc2)cc1    28.8
3. COc1ccc(Oc2nc3cc(N)cc(N)c3nc2-c2ccccc2)cc1    87.1
4. COc1cc(OC)cc(Oc2nc3cc(N)cc(N)c3nc2-c2ccccc2)c1    10.2
5. Nc1cc(N)c2nc(-c3ccccc3)c(NCc3ccc(Cl)c(Cl)c3)nc2c1    4.27
6. Nc1cc(N)c2nc(-c3ccccc3)c(Oc3ccc(Cl)c(Cl)c3)nc2c1    23.4
7. COc1ccc(CNc2nc3cc(N)cc(N)c3nc2-c2ccccc2)cc1OC    30.2
8. Nc1cc(N)c2nc(-c3ccccc3)c(Sc3ccc(Cl)c(Cl)c3)nc2c1    30.9

====

test system: SR; experiment: Growth inhibition of human SR cells after 48 hrs by sulforhodamine B assay; type: functional
LC50 (concentration giving 50% net cell death) listing for selected molecules.
Measure Name: LC50 (concentration giving 50% net cell death)

1) COc1cc(CNc2nc3cc(N)cc(N)c3nc2-c2ccccc2)cc(OC)c1OC    > 50.1 µM
2) Nc1cc(N)c2nc(-c3ccccc3)c(NCc3ccc(F)cc3)nc2c1    > 100 µM
3) COc1ccc(CNc2nc3cc(N)cc(N)c3nc2-c2ccccc2)cc1    > 100 µM
4) Nc1cc(N)c2nc(-c3ccccc3)c(Sc3ccc(F)cc3)nc2c1    > 100 µM
5) Nc1cc(N)c2nc(-c3ccccc3)c(Oc3ccc(F)cc3)nc2c1    > 100 µM
6) Nc1cc(N)c2nc(-c3ccccc3)c(Sc3ccc(Cl)c(Cl)c3)nc2c1    > 100 µM

====

log10(TGI) listing for selected compounds.
tested on: NCI/ADR-RES; assay: Growth inhibition of human NCI/ADR-RES cells after 48 hrs by sulforhodamine B assay; format: functional; conditions: read-out: pTGI (converted)
Measure Name: log10(TGI) (log10 of the value in µM)

1. Nc1cc(N)c2nc(-c3ccccc3)c(NCc3ccc(F)cc3)nc2c1    0.76
2. Nc1cc(N)c2nc(-c3ccccc3)c(NCc3ccc(Cl)c(Cl)c3)nc2c1    1.66
3. COc1cc(CNc2nc3cc(N)cc(N)c3nc2-c2ccccc2)cc(OC)c1    1.52
4. Nc1cc(N)c2nc(-c3ccccc3)c(Oc3ccc(Cl)c(Cl)c3)nc2c1    1.56
5. Nc1cc(N)c2nc(-c3ccccc3)c(Sc3ccc(Cl)c(Cl)c3)nc2c1    1.78
6. COc1ccc(CNc2nc3cc(N)cc(N)c3nc2-c2ccccc2)cc1OC    1.82
7. Nc1cc(N)c2nc(-c3ccccc3)c(Oc3ccc(F)cc3)nc2c1    1.56
8. COc1cc(CNc2nc3cc(N)cc(N)c3nc2-c2ccccc2)cc(OC)c1OC    1.34

====

TGI listing for selected molecules.
system: PC-3; test: Growth inhibition of human PC3 cells after 48 hrs by sulforhodamine B assay; type: functional; conditions: PC-3, 48 h, read-out: pTGI (converted)
Measure Name: TGI (µM)

1. COc1ccc(Sc2nc3cc(N)cc(N)c3nc2-c2ccccc2)cc1    5.13
2. Nc1cc(N)c2nc(-c3ccccc3)c(NCc3ccc(F)cc3)nc2c1    15.5
3. COc1ccc(CNc2nc3cc(N)cc(N)c3nc2-c2ccccc2)cc1OC    27.5
4. COc1cc(CNc2nc3cc(N)cc(N)c3nc2-c2ccccc2)cc(OC)c1    14.5
5. Nc1cc(N)c2nc(-c3ccccc3)c(Oc3ccc(Cl)c(Cl)c3)nc2c1    14.5
6. Nc1cc(N)c2nc(-c3ccccc3)c(NCc3ccc(Cl)c(Cl)c3)nc2c1    5.13
7. Nc1cc(N)c2nc(-c3ccccc3)c(Oc3ccc(F)cc3)nc2c1    27.5
8. COc1cc(OC)cc(Oc2nc3cc(N)cc(N)c3nc2-c2ccccc2)c1    27.5
9. COc1ccc(CNc2nc3cc(N)cc(N)c3nc2-c2ccccc2)cc1    27.5
10. Nc1cc(N)c2nc(-c3ccccc3)c(Sc3ccc(Cl)c(Cl)c3)nc2c1    15.5
